Every entry's value here was drawn from PubChem BioAssay (NCI).

Known growth of a selection of compounds
System: MDA-MB-435 melanoma
testSummary: NCI-60 one-dose screen, 48 h (100 = growth as untreated, 0 = no growth, -100 = all killed)
conditionInfo: 10 µM unless noted
Compounds without any hit were thinned out: in the full panel of roughly 83,000, 20% have a hit.
A number alone suffices; assume %.

// worked examples, growth included
COc1ccc(C(=O)c2cc(OC)c(OC)c(OC)c2)cc1OC(=O)C(Cl)(Cl)Cl
-13.5
COc1cc2c(cc1OCCCOc1cc3c(cc1OC)C(=O)N1CC(F)(F)C[C@H]1C=N3)N=C[C@@H]1CC(F)(F)CN1C2=O
-11.8
CC1CCCN(CCCCCOc2ccc3oc4ccc(Cl)cc4c(=O)c3c2)C1 (centres undefined)
25.1
Nc1ccc(C(=O)Nc2cccc(C(=O)Nc3ccc4c(O)c(N=Nc5ccc(N=Nc6ccc(S(=O)(=O)O)cc6)cc5)c(S(=O)(=O)O)cc4c3)c2)cc1
106
COc1cc(NC(=O)Nc2cnc(Nc3ccc(N4CCOCC4)cc3)nc2Oc2ccc(C(F)(F)F)cc2)cc(OC)c1
107

Return the recorded growth value; entry: Nc1c(C(=O)Nc2ccccn2)sc2nc3c(cc12)CCCCC3 -25.2

Return the recorded growth value; entry: O=C1Nc2ccc(Cl)cc2/C1=N/c1nc(-c2ccc(F)cc2)cs1 9.56

Return the recorded growth value; entry: CCOc1ccccc1C(=O)/C=C/c1cc2ccccc2[nH]c1=O 5.11

Return the recorded growth value; entry: O=C(Nc1nc(-c2ccccc2)cs1)c1cc(-c2ccc(Br)cc2)nc2ccccc12 77.2
